SYSTEM_TESTED: Glucagon-like peptide 1 receptor (Homo sapiens) (UniProt P43220)
Sequence (P43220 whole entry, looked up): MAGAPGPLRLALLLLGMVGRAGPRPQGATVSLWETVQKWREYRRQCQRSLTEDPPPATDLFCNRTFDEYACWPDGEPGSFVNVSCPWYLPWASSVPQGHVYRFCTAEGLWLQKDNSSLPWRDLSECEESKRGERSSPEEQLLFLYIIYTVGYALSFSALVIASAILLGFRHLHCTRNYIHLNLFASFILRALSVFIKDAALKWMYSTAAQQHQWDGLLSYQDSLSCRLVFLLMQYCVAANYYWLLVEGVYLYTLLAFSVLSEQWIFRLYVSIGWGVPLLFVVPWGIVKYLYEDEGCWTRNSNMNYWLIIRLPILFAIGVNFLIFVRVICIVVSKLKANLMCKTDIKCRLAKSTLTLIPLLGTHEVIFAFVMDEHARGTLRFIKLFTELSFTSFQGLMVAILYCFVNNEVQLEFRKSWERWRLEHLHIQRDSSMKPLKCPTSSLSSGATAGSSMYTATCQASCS
ASSAY_SUMMARY: qHTS of GLP-1 Receptor Agonists: Hit Validation; further: potency means the concentration at half of the fitted maximal effect
DETAILS: HEK293 GLP-1R, cAMP-response luciferase, 4-6 h; series mostly up to 46.1 µM
Hit rate of the full screen: of about 1,300 compounds, about 25 (2%) were called active. About 9% were inconclusive and are not listed. The list comes from a sample in which actives are over-represented; it also holds close analogues and randomly drawn compounds.
READOUT_NAME: Potency

These recorded examples may help you get a feel for the data.
Task: System Glucagon-like peptide 1 receptor (Homo sapiens) (UniProt P43220). Read-out Potency. Item Cc1ccc(NC(=O)Nc2ccc([N+](=O)[O-])cc2)nc1 . Report value.
Output: inactive

Task: System Glucagon-like peptide 1 receptor (Homo sapiens) (UniProt P43220). Read-out Potency. Item CC(=O)c1cccc(Nc2nc(=O)c3cccnc3s2)c1 . Report value.
Output: inactive

Task: System Glucagon-like peptide 1 receptor (Homo sapiens) (UniProt P43220). Read-out Potency. Item Oc1ccccc1/C=N/N1CCN(c2ccccn2)CC1 . Report value.
Output: inactive

Task: Answer briefly: Potency recorded on Glucagon-like peptide 1 receptor (Homo sapiens) (UniProt P43220) for COc1ccc(C2=Nn3c(nnc3-c3ccccc3OC)SC2)cc1OC
Output: 5.8 µM (active)

Task: Jot down Potency (Glucagon-like peptide 1 receptor (Homo sapiens) (UniProt P43220)) of Cc1ccc(C)c(S(=O)(=O)Nc2cc3c4c(c2)CCC(=O)N4CCC3)c1 .
Output: inactive

Others:
Task: Please respond with reported Potency (system Glucagon-like peptide 1 receptor (Homo sapiens) (UniProt P43220)) for COc1ccc(C(=O)COC(=O)c2cc([N+](=O)[O-])ccc2N2CCOCC2)c(OC)c1 .
Output: 20.6 µM (active)

Task: Under Glucagon-like peptide 1 receptor (Homo sapiens) (UniProt P43220): report Potency of CC(=O)c1oc2ccccc2c1NC(=O)CN1CCCCC1 .
Output: inactive

Task: Report the value of Potency obtained on Glucagon-like peptide 1 receptor (Homo sapiens) (UniProt P43220) for CCOc1ccc(Br)cc1S(=O)(=O)Nc1ccc(C(=O)OCC(=O)N(C)c2ccccc2)cc1 .
Output: inactive

Task: Tell me Potency of COc1ccc(OC)c(-c2nnc3n2N=C(c2ccc(OC)c(OC)c2)CS3)c1 when tested on Glucagon-like peptide 1 receptor (Homo sapiens) (UniProt P43220).
Output: 1.64 µM (active)

Task: Consider the molecule COc1ccc(N(CC(=O)N/N=C/c2ccc(OC)c(OC)c2)S(=O)(=O)c2ccccc2)cc1 tested on Glucagon-like peptide 1 receptor (Homo sapiens) (UniProt P43220); state its Potency.
Output: inactive

Task: State, for Glucagon-like peptide 1 receptor (Homo sapiens) (UniProt P43220), measured Potency of the molecule listed here: COc1ccc(-c2cc(C(=O)N3CCCC(C(F)(F)F)C3)c3ccccc3n2)cc1OC (configuration not stated)
Output: inactive

Task: Send back Glucagon-like peptide 1 receptor (Homo sapiens) (UniProt P43220) Potency of CCc1ccc(C(=O)COC(=O)c2cc([N+](=O)[O-])ccc2N2CCOCC2)cc1 only.
Output: inactive

Task: State the measured Potency (Glucagon-like peptide 1 receptor (Homo sapiens) (UniProt P43220)) of COC(=O)Cc1c(C)c2ccc(OCc3nn[nH]n3)cc2oc1=O
Output: inactive

Task: Report its Potency with Glucagon-like peptide 1 receptor (Homo sapiens) (UniProt P43220) as the test system: CN(C)c1ncnc2sc(-c3ccccc3)cc12
Output: inactive

Task: Provide Potency, system Glucagon-like peptide 1 receptor (Homo sapiens) (UniProt P43220), entry CC1CN(c2nc(N(C)c3ccccc3)nc(N)c2[N+](=O)[O-])CC(C)O1 (configuration not stated)
Output: inactive

Task: // fetch Potency; item: Cc1cc(C)n(-c2nnc3n2N=C(c2c[nH]c4ccccc24)CS3)n1 ; system: Glucagon-like peptide 1 receptor (Homo sapiens) (UniProt P43220)
Output: inactive

Task: Consider the molecule O=[N+]([O-])c1cnccc1NC1CCCCC1 tested on Glucagon-like peptide 1 receptor (Homo sapiens) (UniProt P43220); state its Potency.
Output: inactive
